assay: In vivo pharmacokinetic study; design: species or system BALB/c mice; details: both, BALB/c, mouse, plasma, iv, 5 mg/kg
MEASURE: half-life (h)
Answer with a number only, understood to be in h.

QUERY: Endpoint output: half-life of CCCNCC(O)Cn1c2ccc(Cl)cc2c2cc(Cl)ccc21 (stereo not shown) [Compound H1402] . Value?
RESULT: 7

* * *

assay: In vivo pharmacokinetic study; parameters: species or system BALB/c mice; conditions: male, BALB/c, mouse, plasma, po, 100 mg/kg
MEASURE: half-life (h)
Answer with a number only, understood to be in h.

QUERY: Endpoint output: half-life of CCCNCC(O)Cn1c2ccc(Cl)cc2c2cc(Cl)ccc21 (stereo not shown) [Compound H1402] . Value?
RESULT: 10.4

* * *

test: In vivo pharmacokinetic study; set-up: species or system BALB/c mice; conditions: both, BALB/c, mouse, plasma, iv, 5 mg/kg
MEASURE: Vd (L/kg)
Answer with a number only, understood to be in L/kg.

QUERY: Endpoint output: Vd of CCCNCC(O)Cn1c2ccc(Cl)cc2c2cc(Cl)ccc21 (stereo not shown) . Value?
RESULT: 19

* * *

experiment: In vivo pharmacokinetic study; parameters: species or system BALB/c mice; settings: both, BALB/c, mouse, plasma, po, 100 mg/kg
MEASURE: AUC(0-inf)

QUERY: Endpoint output: AUC(0-inf) of CCCNCC(O)Cn1c2ccc(Cl)cc2c2cc(Cl)ccc21 (stereo not shown) . Value?
RESULT: 128 µM·h

* * *

test: Cytotoxicity assay; assay type: cell-based; conditions: human, HepG2 cells
MEASURE: CC50 at 48 h

QUERY: Endpoint output: CC50 at 48 h of CCCNCC(O)Cn1c2ccc(Cl)cc2c2cc(Cl)ccc21 (stereo not shown) . Value?
RESULT: 14.9 µM

* * *

assay: In vivo pharmacokinetic study; parameters: species or system BALB/c mice; conditions: female, BALB/c, mouse, plasma, po, 100 mg/kg
MEASURE: half-life (h)
Answer with a number only, understood to be in h.

QUERY: Endpoint output: half-life of CCCNCC(O)Cn1c2ccc(Cl)cc2c2cc(Cl)ccc21 (stereo not shown) [Compound H1402] . Value?
RESULT: 24.6

* * *

assay: In vivo pharmacokinetic study; set-up: species or system BALB/c mice; settings: both, BALB/c, mouse, plasma, iv, 5 mg/kg
MEASURE: Cmax (nM)
Answer with a number only, understood to be in nM.

QUERY: Endpoint output: Cmax of CCCNCC(O)Cn1c2ccc(Cl)cc2c2cc(Cl)ccc21 (stereo not shown) [Compound H1402] . Value?
RESULT: 2600

* * *

assay: In vivo pharmacokinetic study; parameters: species or system BALB/c mice; settings: both, BALB/c, mouse, plasma, iv, 5 mg/kg
MEASURE: AUC(0-t) (µM·h)
Answer with a number only, understood to be in µM·h.

QUERY: Endpoint output: AUC(0-t) of CCCNCC(O)Cn1c2ccc(Cl)cc2c2cc(Cl)ccc21 (stereo not shown) . Value?
RESULT: 7.5

* * *

assay: In vivo pharmacokinetic study; parameters: species or system BALB/c mice; conditions: both, BALB/c, mouse, plasma, po, 100 mg/kg
MEASURE: Cmax (µM)
Answer with a number only, understood to be in µM.

QUERY: Endpoint output: Cmax of CCCNCC(O)Cn1c2ccc(Cl)cc2c2cc(Cl)ccc21 (stereo not shown) [Compound H1402] . Value?
RESULT: 4.4

* * *

assay: In vivo pharmacokinetic study; set-up: species or system BALB/c mice; settings: both, BALB/c, mouse, plasma, oral, 100 mg/kg
MEASURE: bioavailability (%)
Answer with a number only, understood to be in %.

QUERY: Endpoint output: bioavailability of CCCNCC(O)Cn1c2ccc(Cl)cc2c2cc(Cl)ccc21 (stereo not shown) [Compound H1402] . Value?
RESULT: 69.8

* * *

assay: In vivo pharmacokinetic study; parameters: species or system BALB/c mice; conditions: both, BALB/c, mouse, plasma, po, 100 mg/kg
MEASURE: Tmax (h)
Answer with a number only, understood to be in h.

QUERY: Endpoint output: Tmax of CCCNCC(O)Cn1c2ccc(Cl)cc2c2cc(Cl)ccc21 (stereo not shown) . Value?
RESULT: 6

* * *

assay: In vivo pharmacokinetic study; design: species or system BALB/c mice; details: both, BALB/c, mouse, plasma, iv, 5 mg/kg
MEASURE: clearance

QUERY: Endpoint output: clearance of CCCNCC(O)Cn1c2ccc(Cl)cc2c2cc(Cl)ccc21 (stereo not shown) . Value?
RESULT: 32 mL/min/kg
